Where these numbers come from: the NIST ThermoML archive (doi:10.1016/j.fluid.2015.05.009)

details: 333.15 K; 101.33 kPa; Liquid; Vibrating tube method
parameter: mass density (kg/m3)

> print(dat)
                                   molecule  recorded.measurement
1  CCCCCCCC[P+](CCCCCCCC)(CCCCCCCC)CCCCCCCC.[Br-] [tetraoctylphosphonium bromide]                 935.9
2  CCCC[P+](C)(CCCC)CCCC.COS(=O)(=O)[O-] [tributylmethylphosphonium methyl sulfate]                1045.9
3  CCCC[P+](CC)(CCCC)CCCC.CCOP(=O)([O-])OCC [tributylethylphosphonium diethylphosphate]                 987.6
4  CC(C)C[P+](C)(CC(C)C)CC(C)C.Cc1ccc(S(=O)(=O)[O-])cc1 [triisobutylmethylphosphonium p-toluenesulfonate]                1051.8
